# assayed-target: TYK2 (Homo sapiens, UniProt P29597)
# Sequence (P29597 whole entry): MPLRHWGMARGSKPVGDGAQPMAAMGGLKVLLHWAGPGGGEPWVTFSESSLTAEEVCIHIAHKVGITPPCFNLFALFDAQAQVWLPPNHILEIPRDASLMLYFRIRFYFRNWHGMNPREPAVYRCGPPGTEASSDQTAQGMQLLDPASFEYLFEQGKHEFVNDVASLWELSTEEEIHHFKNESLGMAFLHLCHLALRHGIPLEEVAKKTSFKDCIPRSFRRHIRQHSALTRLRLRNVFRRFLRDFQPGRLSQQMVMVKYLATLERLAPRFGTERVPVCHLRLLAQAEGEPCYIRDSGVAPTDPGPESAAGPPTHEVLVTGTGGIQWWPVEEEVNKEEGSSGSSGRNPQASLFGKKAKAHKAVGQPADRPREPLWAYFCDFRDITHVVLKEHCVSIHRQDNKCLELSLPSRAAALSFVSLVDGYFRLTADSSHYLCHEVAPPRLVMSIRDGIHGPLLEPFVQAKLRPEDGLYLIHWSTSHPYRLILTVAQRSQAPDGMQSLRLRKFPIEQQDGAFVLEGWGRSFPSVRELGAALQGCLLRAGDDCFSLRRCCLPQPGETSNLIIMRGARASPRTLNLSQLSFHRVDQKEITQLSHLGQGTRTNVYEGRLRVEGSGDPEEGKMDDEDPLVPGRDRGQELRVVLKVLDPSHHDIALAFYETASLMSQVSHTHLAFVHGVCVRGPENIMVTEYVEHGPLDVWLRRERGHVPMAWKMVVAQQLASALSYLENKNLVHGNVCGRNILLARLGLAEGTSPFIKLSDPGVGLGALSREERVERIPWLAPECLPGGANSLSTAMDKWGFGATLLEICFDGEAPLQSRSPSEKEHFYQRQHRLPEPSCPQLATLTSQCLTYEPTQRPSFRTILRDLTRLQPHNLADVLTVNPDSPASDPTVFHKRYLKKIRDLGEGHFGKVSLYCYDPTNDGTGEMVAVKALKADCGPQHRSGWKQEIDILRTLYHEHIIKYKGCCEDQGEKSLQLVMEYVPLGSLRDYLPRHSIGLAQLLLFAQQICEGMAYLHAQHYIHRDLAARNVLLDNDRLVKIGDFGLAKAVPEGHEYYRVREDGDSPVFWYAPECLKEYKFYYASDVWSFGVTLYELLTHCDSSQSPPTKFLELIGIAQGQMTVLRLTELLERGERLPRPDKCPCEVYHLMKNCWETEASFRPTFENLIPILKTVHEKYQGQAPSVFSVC
# experiment-summary: TYK2 degradation MSD assay in OCI-LY10 cells
# Assay type: cell-based
# Set-up: endogenous in cells; host or cells: EBV-B cells
# measurement-parameters: 4 to 24 hours incubation, read-out: TYK2 MSD DC50 rating in OCI-LY10
quantity-kind: DC50

Identify measured DC50 associated with Cn1c(=O)n(C2CCC(=O)NC2=O)c2ccc(-c3ccc(N4CCN(Cc5ccc(-c6cccc(Nc7nn8c(C(=O)N[C@@H]9C[C@@H]9F)cnc8c8c7OCCN8)c6)nc5)CC4)cc3)cc21 (stereo partly drawn) [Example K557]
< 1 nM

Consider the compound CNc1cc(Nc2cccc(-c3ccc(CN4CCC(N5CC(N6CCN(c7ccc8c(c7)n(C)c(=O)n8C7CCC(=O)NC7=O)CC6)C5)CC4)cn3)c2OC)nn2c(C(=O)N[C@@H]3C[C@@H]3F)cnc12 (stereo partly drawn) [Example K487] and give its recorded DC50.
< 1 nM

For the compound CNc1cc(Nc2cccn(-c3ccc(C(=O)N4CCC(OCCCc5ccc6c(c5)n(C)c(=O)n6C5CCC(=O)NC5=O)CC4)cn3)c2=O)nn2c(C(=O)N[C@@H]3C[C@@H]3F)cnc12 (stereo partly drawn) [Example K407] , report DC50.
< 1 nM

---

Please respond with reported DC50 for every item in the list.
# assayed-target: TYK2 (Homo sapiens)
# experiment-summary: TYK2 degradation MSD assay in EBV-B cells
# Assay type: cell-based
# Parameters: endogenous in cells; host or cells: EBV-B cells
# measurement-parameters: 4 to 24 hours incubation, read-out: TYK2 MSD DC50 rating in EBV-B

State recorded DC50 with TYK2 (Homo sapiens), entry CNc1cc(Nc2cccc(-c3ccc(CN4CCN(c5ccc(-c6ccc7c(c6)n(C)c(=O)n7C6CCC(=O)NC6=O)cc5)CC4)cn3)c2)nn2c(-c3cn(C(C)C)nn3)cnc12 (centres unmarked) , no comment.
> 100 nM

Give DC50 for CNC(=O)c1cnc(Nc2ccc(CN3CC(N(C)c4ccc5c(c4)n(C)c(=O)n5C4CCC(=O)NC4=O)C3)cn2)cc1Nc1cccc(-c2ncc(F)cn2)c1OC (centres unmarked) tested on TYK2 (Homo sapiens).
> 100 nM

Enter DC50 (test system TYK2 (Homo sapiens)) for CNc1cc(-c2cccc(C(=O)NCCCCCCc3cccc4c3n(C)c(=O)n4C3CCC(=O)NC3=O)c2)nn2c(C(=O)N[C@@H]3C[C@@H]3F)cnc12 (some centres unmarked)
> 100 nM

Give measured DC50 for CNc1cc(N2CCc3c(N4CCN(C5CCN(c6ccc7c(c6)n(C)c(=O)n7C6CCC(=O)NC6=O)CC5)CC4)cccc32)nn2c(C(=O)N[C@@H]3C[C@@H]3F)cnc12 (some centres unmarked) (TYK2 (Homo sapiens)).
> 100 nM

// output DC50; input CNc1cc(Nc2cccn(-c3cc(C(=O)NCCOCCOCCOCCOCCOCCOCCc4cccc5c4n(C)c(=O)n5C4CCC(=O)NC4=O)ccn3)c2=O)nn2c(C(=O)N[C@@H]3C[C@@H]3F)cnc12 (some centres unmarked) [Example K246] ; system TYK2 (Homo sapiens)
> 100 nM

Report value only: DC50, TYK2 (Homo sapiens), CNc1cc(Nc2cccn(C3CCN(C(=O)NCCCCc4ccc5c(c4)n(C)c(=O)n5C4CCC(=O)NC4=O)CC3)c2=O)nn2c(C(=O)N[C@@H]3C[C@@H]3F)cnc12 (some centres unmarked)
> 100 nM

Please report the measured DC50 for CNC(=O)c1cnc(Nc2ccc(CN3CCN(CCc4ccc5c(c4)n(C)c(=O)n5C4CCC(=O)NC4=O)CC3)cn2)cc1Nc1cccc(-c2ncc(F)cn2)c1OC (centres unmarked) tested on TYK2 (Homo sapiens).
< 1 nM

For TYK2 (Homo sapiens), give the measured DC50 of the entry CNC(=O)c1cnc(Nc2ccc(CN(C)C3CN(c4ccc5c(c4)n(C)c(=O)n5C4CCC(=O)NC4=O)C3)cn2)cc1Nc1cccc(-c2ncc(F)cn2)c1OC (centres unmarked)
> 100 nM

Specify the recorded DC50 for CNc1cc(Nc2cccn(-c3cccc(C(=O)NCCCCCCc4ccc5c(c4)n(C)c(=O)n5C4CCC(=O)NC4=O)c3)c2=O)nn2c(C(=O)N[C@@H]3C[C@@H]3F)cnc12 (some centres unmarked) , system: TYK2 (Homo sapiens).
> 100 nM

Report DC50 from TYK2 (Homo sapiens) testing of CNC(=O)c1cnc(NC(=O)NCCCCCCCCc2cccc3c2n(C)c(=O)n3C2CCC(=O)NC2=O)cc1Nc1cccc(-c2ncc(F)cn2)c1OC (centres unmarked)
> 100 nM

Name the value of DC50 reported for CNC1=CC(Nc2cccc(-c3ccc(CN4CC5(CCN(c6cccc7c(C8CCC(=O)NC8=O)cccc67)CC5)C4)cn3)c2)=NC2C(C(=O)N[C@@H]3C[C@@H]3F)=CN=C12 (some centres unmarked) when tested on TYK2 (Homo sapiens).
< 1 nM

For TYK2 (Homo sapiens), give DC50 of the listed compound: CNC(=O)c1cnc(Nc2ccc(CN3CC(c4cccc5c4n(C)c(=O)n5C4CCC(=O)NC4=O)C3)cn2)cc1Nc1cccc(-c2ncc(F)cn2)c1OC (centres unmarked)
> 100 nM

Please respond with reported DC50 (system TYK2 (Homo sapiens)) for CNc1cc(Nc2cccn(-c3ccc(C(=O)N[C@H]4CC[C@H](CN5CCC6(CC5)CN(Cc5cccc7c5n(C)c(=O)n7C5CCC(=O)NC5=O)C6)CC4)cn3)c2=O)nn2c(C(=O)N[C@@H]3C[C@@H]3F)cnc12 (some centres unmarked) .
1 to 10 nM

GET DC50 | system: TYK2 (Homo sapiens) | item: CNc1cc(Nc2cccn(-c3ccc(C(=O)N4CC5(CC(CN6CCN(c7ccc8c(c7)n(C)c(=O)n8C7CCC(=O)NC7=O)CC6)CO5)C4)cn3)c2=O)nn2c(C(=O)N[C@@H]3C[C@@H]3F)cnc12 (some centres unmarked)
> 100 nM

Provide measured DC50 on TYK2 (Homo sapiens) for CNc1cc(Nc2cccn(-c3ccc(C(=O)N4CCN(CC5CC(c6ccc(-c7ccc8c(c7)n(C)c(=O)n8C7CCC(=O)NC7=O)cc6)C5)CC4)cn3)c2=O)nn2c(C(=O)N[C@@H]3C[C@@H]3F)cnc12 (some centres unmarked) please.
< 1 nM

Print TYK2 (Homo sapiens) DC50 for Cn1c(=O)n(C2CCC(=O)NC2=O)c2ccc(-c3ccc(N4CCN(Cc5ccc(-c6cccc(Nc7ccc8ncc(C(=O)NC9CC9)n8n7)c6)nc5)CC4)cc3)cc21 (centres unmarked) .
1 to 10 nM

GET DC50 | system: TYK2 (Homo sapiens) | item: CNC(=O)c1cnc(Nc2ccc(N3CCN(c4cccc5c4n(C)c(=O)n5C4CCC(=O)NC4=O)CC3)cn2)cc1Nc1cccc(-c2ncc(F)cn2)c1OC (centres unmarked)
1 to 10 nM

Report DC50 from TYK2 (Homo sapiens) testing of CNC(=O)c1cnc(Nc2ccc(CN(C)CCCOC3CCN(c4ccc5c(c4)n(C)c(=O)n5C4CCC(=O)NC4=O)CC3)cn2)cc1Nc1cccc(-c2ncc(F)cn2)c1OC (centres unmarked)
< 1 nM

Give reported DC50 for CNc1cc(-c2cnn(C3CN(C(=O)NCCCCCCc4ccc5c(c4)n(C)c(=O)n5C4CCC(=O)NC4=O)C3)c2)nn2c(C(=O)N[C@@H]3C[C@@H]3F)cnc12 (some centres unmarked) (TYK2 (Homo sapiens))
> 100 nM

Report measured DC50 on TYK2 (Homo sapiens); entry: CNc1cc(N2CCc3c(-c4ccc(CN5CCC(N6CCN(C(=O)c7ccc(Cl)c(N8CCC(=O)NC8=O)c7)CC6)CC5)cn4)cccc32)nn2c(C(=O)N[C@@H]3C[C@@H]3F)cnc12
> 100 nM

---

# assayed-target: UniProt:P29597
# experiment-summary: TYK2 degradation MSD assay in OCI-LY10 cells
# Format: cell-based
# Parameters: endogenous in cells; host or cells: EBV-B cells
# measurement-parameters: 4 to 24 hours incubation, read-out: TYK2 MSD DC50 rating in OCI-LY10
# Procedure: Example 3. TYK2 Degradation MSD Assay in EBV-B, OCI-LY10, and Human PBMC Cells Degradation of TYK2 in cells was quantitatively measured using Meso Scale Discovery (MSD) technology. […] The assay plates were then incubated at room temperature for 1 hour, washed 3 times with 150 μl/well TBST buffer, and 150 μl/well MSD reading buffer (MSD, R92TC-2) were added. The plates were then analyzed by an MSD reader. […]
Kindly state DC50 for each of the entries shown.

# return recorded DC50 for entry CNc1cc(Nc2cccn(-c3ccc(C(=O)C4CCC(C5CCN(c6ccc7c(c6)n(C)c(=O)n7C6CCC(=O)NC6=O)C5)CN4)cn3)c2=O)nn2c(C(=O)N[C@@H]3C[C@@H]3F)cnc12 (stereo partly shown)
> 100 nM

Supply reported DC50 belonging to this compound: CNC(=O)c1cnc(NC(=O)NCCCCCCc2cccc3c2n(C)c(=O)n3C2CCC(=O)NC2=O)cc1Nc1cccc(-c2ncc(F)cn2)c1OC (stereo not shown)
> 100 nM

Using the record for CNc1cc(Nc2ccccc2C(=O)NCCCCc2ccc3c(c2)n(C)c(=O)n3C2CCC(=O)NC2=O)nn2c(C(=O)N[C@@H]3C[C@@H]3F)cnc12 (stereo partly shown) , state its measured DC50.
> 100 nM

// Input: CNC(=O)c1cnc(Nc2ccc(C(=O)N(C)C3CCN(c4cccc5c4n(C)c(=O)n5C4CCC(=O)NC4=O)CC3)cn2)cc1Nc1ccccc1OC (stereo not shown) . Output its DC50 only.
> 100 nM

Please supply the value of reported DC50 for the item CNc1cc(Nc2cccc(C(=O)NCCCCCCCCc3ccc4c(c3)n(C)c(=O)n4C3CCC(=O)NC3=O)c2)nn2c(C(=O)N[C@@H]3C[C@@H]3F)cnc12 (stereo partly shown)
> 100 nM

Using known records, supply DC50 for CNc1cc(Nc2cccn(-c3ccc(C(=O)N4CCN(c5ccc(-c6ccc7c(c6)n(C)c(=O)n7C6CCC(=O)NC6=O)cn5)C(=O)C4)cn3)c2=O)nn2c(C(=O)N[C@@H]3C[C@@H]3F)cnc12 (stereo partly shown)
> 100 nM

Annotate the compound CNc1cc(-c2ccc(N3CCC(CN4CCN(c5ccc(-c6ccc7c(c6)n(C)c(=O)n7C6CCC(=O)NC6=O)cc5)CC4)CC3)cc2)nn2c(C(=O)N[C@@H]3C[C@@H]3F)cnc12 (mixture of isomers) with its measured DC50.
> 100 nM

Given the compound CNc1cc(Nc2cccc(-c3ccc(C(=O)N4CCN([C@H]5CC[C@H](c6ccc(-c7ccc8c(c7)n(C)c(=O)n8C7CCC(=O)NC7=O)cc6)CC5)CC4)cn3)c2)nn2c(C(=O)N[C@@H]3C[C@@H]3F)cnc12 (stereo partly shown) , write its reported DC50.
< 1 nM

Provide measured DC50 value, entry: CNc1cc(Nc2cccc(CN3CC4(CCN(c5ccc6c(c5)n(C)c(=O)n6C5CCC(=O)NC5=O)CC4)C3)c2)nn2c(C(=O)NC3CC3)cnc12 (stereo not shown)
> 100 nM

Could you please provide reported DC50 for CNc1cc(Nc2cccc(N3CCN(CC4CCN(c5ccc(-c6ccc7c(c6)n(C)c(=O)n7C6CCC(=O)NC6=O)cc5)CC4)CC3)c2)nn2c(C(=O)N[C@@H]3C[C@@H]3F)cnc12 (stereo partly shown) ? Thanks!
> 100 nM
